- System: binding of antibody 5-21-3 to rp41
- Method Summary: Binding inhibition assay: peptides inhibit binding of 5-21-3 to rp41
- Set-up: species or system HIV I
- Assay Context: mean of two experiments; 0.4 pmol 5-21-3 IgG per well
- Procedure: Additional evidence for the conformationl nature of the 5-21-3 epitope was obtained using binding inhibition studies, in which synthetic peptides were ranked for their ability to inhibit binding of 5-21-3 to rp41. First, the Fab dimer of an anti-gp41 monoclonal antibody was prepared by conventional methods (Goding et al., supra). Then 100 ul of a 1 mg/ml solution of the Fab dimer in bicarbonate buffer (pH 9.6) was coated onto Immulon II microtiter plates for 1 hr at 37° C. […]
Listing of recorded Molar Ratio at 50% inhibition of 5-21-3 binding by entry.

Guide cases for Molar Ratio at 50% inhibition of 5-21-3 binding, answers given:
NH2-Asp-Arg-Glu-Ile-Asn-Asn-Tyr-Thr-Ser-Leu-Ile-His-Ser-Leu-Ile-Glu-Glu -Ser-Gln-Asn-Gln-Gln-Glu-Lys-Asn-Glu-Gln-Glu-Leu-Leu-Glu-Leu-Asp-Lys-COOH (H-DREINNYTSLIHSLIEESQNQQEKNEQELLELDK-OH) [P121-154]: 1,494 pmoles peptide/pmoles 5-21-3
IHSLIEESQNQQEKNEQELLELDK [P131-154]: >50,000 pmoles peptide/pmoles 5-21-3
IHSLIEESQNQQEKNEQELLELDKWANLWNWLNITNWLWYIKLFI [P131-175]: 18,815 pmoles peptide/pmoles 5-21-3
YNYTSLIHSLIEESQNQQEKNEQELLELDKWANLWNWL [P126-162]: 1,585 pmoles peptide/pmoles 5-21-3

**Query** Send back binding of antibody 5-21-3 to rp41 Molar Ratio at 50% inhibition of 5-21-3 binding of ARILAVERYLKDQQLLGIWGCSGKLICTTAVPWNASWSNKSLEQIWNNMTWMEWDREINNYSLIHSLIEESQNQQEKNELLELNK [P67-154] only.
**Result** 72.7 pmoles peptide/pmoles 5-21-3

====

Listing of recorded SPECIFIC PRECIPITATION (CPM) by RαP58-130 by entry.
- Tested on: Rabbit (R) anti-P58-130 serum
- Method Summary: Immunoprecipitation of [125I] synthetic peptides by rabbit anti-P58-130 serum
- Type: binding
- Assay Context: rabbit anti-P58-130 serum 20 ul/0.2 ml; second antibody precipitation
Give your result in CPM as a bare value.

Guide cases for SPECIFIC PRECIPITATION (CPM) by RαP58-130, answers given:
IHSLIEESQNQQEKNEQELLELDK [P131-154]: 0
YNYTSLIHSLIEESQNQQEKNEQELLELDKWANLWNWL [P126-162]: 0

**Query** Give recorded SPECIFIC PRECIPITATION (CPM) by RαP58-130. IHSLIEESQNQQEKNEQELLELDKWANLWNWLNITNWLWYIKLFI [P131-175]
**Result** 0

====

- System: monoclonal antibody 5-21-3
- Method Summary: Immunoprecipitation of [125I] synthetic peptides by 5-21-3
- Type: binding, mouse
Measurement Label: binding of [125I]peptide by 5-21-3 (immunoprecipitation), in words

IHSLIEESQNQQEKNEQELLELDK [P131-154]: unable to bind
H-TVWGIKELQARILAVERYLKDQQLLGIWGCSGKLICTTAVPWNASWSNKSLEQIWNNMTWMEWDREINNYTSL-OH [P58-130]: unable to bind
NH2-Asp-Arg-Glu-Ile-Asn-Asn-Tyr-Thr-Ser-Leu-Ile-His-Ser-Leu-Ile-Glu-Glu -Ser-Gln-Asn-Gln-Gln-Glu-Lys-Asn-Glu-Gln-Glu-Leu-Leu-Glu-Leu-Asp-Lys-COOH (H-DREINNYTSLIHSLIEESQNQQEKNEQELLELDK-OH) [P121-154]: recognized by 5-21-3
YNYTSLIHSLIEESQNQQEKNEQELLELDKWANLWNWL [P126-162]: recognized by 5-21-3

Taken from patent US20030118985A1.
